- targetOrTestSystem: T1, cMSLN-His-Avi (cynomolgus, single biotin on the Avi tag in the biotinylated form)
- T1 construct: Monomeric; also called cyno MSLN-His-Avi; cMSLN-Avi-His
- T1 chain: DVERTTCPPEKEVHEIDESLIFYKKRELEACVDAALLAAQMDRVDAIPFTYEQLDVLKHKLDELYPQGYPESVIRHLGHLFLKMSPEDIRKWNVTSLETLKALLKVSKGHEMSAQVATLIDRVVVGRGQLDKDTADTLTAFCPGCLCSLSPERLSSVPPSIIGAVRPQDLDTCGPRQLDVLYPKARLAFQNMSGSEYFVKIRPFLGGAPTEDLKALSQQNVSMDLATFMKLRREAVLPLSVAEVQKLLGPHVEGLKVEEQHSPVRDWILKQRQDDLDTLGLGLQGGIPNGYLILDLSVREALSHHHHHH
- experimentalProtocol: SPR, mAb2 captured on Protein G, cMSLN-His-Avi in solution
Listing of entries alongside the reported Kd.

binder: FS22-172-003-AA/FS28-256-023 (bispecific antibody, human IgG1, kappa, L234A L235A, V domains shown, IgG1 mAb^2 with LALA) VH: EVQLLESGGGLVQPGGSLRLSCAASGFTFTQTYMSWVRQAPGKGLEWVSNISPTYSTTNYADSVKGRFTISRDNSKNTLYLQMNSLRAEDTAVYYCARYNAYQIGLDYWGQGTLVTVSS VL: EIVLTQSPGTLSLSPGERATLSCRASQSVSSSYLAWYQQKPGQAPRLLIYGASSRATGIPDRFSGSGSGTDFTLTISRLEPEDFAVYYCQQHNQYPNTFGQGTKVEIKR
Kd (nM): 44.2

binder: FS22-172-003-AA/FS28-256-027 (bispecific antibody, human IgG1, kappa, L234A L235A, V domains shown, IgG1 mAb^2 with LALA) VH: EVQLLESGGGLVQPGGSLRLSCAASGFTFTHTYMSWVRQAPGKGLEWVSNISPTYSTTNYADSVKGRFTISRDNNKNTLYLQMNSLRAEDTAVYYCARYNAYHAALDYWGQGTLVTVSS VL: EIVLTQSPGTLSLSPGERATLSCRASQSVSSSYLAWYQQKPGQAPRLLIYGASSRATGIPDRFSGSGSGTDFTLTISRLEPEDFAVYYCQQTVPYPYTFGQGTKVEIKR
Kd (nM): 1.06

binder: FS22-172-003-AA/FS28-185 (bispecific antibody, human IgG1, kappa, L234A L235A, V domains shown, IgG1 mAb^2 with LALA; also called FS28-185 in CD137 mAb^2 format) VH: EVQLLESGGGLVQPGGSLRLSCAASGFTFTTSAMSWVRQAPGKGLEWVSRINPYEGETNYADSVKGRFTISRDNSKNTLYLQMNSLRAEDTAVYYCARGWSIATYYKSAMDYWGQGTLVTVSS VL: EIVLTQSPGTLSLSPGERATLSCRASQSVSSSYLAWYQQKPGQAPRLLIYGASSRATGIPDRFSGSGSGTDFTLTISRLEPEDFAVYYCQQSSYSAPVTFGQGTKVEIKR
Kd (nM): 294
